# Tested on: HL-60(TB) leukemia
# ASSAY_REMARKS: NCI-60 one-dose screen, 48 h (100 = growth as untreated, 0 = no growth, -100 = all killed)
# ASSAY_CONTEXT: 10 µM unless noted
# Experimental: Growth inhibition of the HL-60(TB) human tumor cell line is measured as a screen for anti-cancer activity. Cells are grown in 96 well plates and exposed to the test compound for 48 hours. Compounds are tested at a single concentration, which is 10^-5 M for most compounds. The reported endpoint is percent growth (GI% or GIPRCNT), where numbers from 0 - 100% represent growth inhibition, and numbers from -100% - 0 represent cell death. For example, a value of 40 represents 60% growth inhibition. […]
About 83,000 compounds went through this panel and 20% of them were active in at least one assay; those are over-represented in the sample as a whole.
Is growth at least 30%? Then t. If not, f.

CCCCOc1ccc(/C=N/Nc2cc(C)nc3ccc(Cl)cc23)cc1    f
COc1ccc(/C=C(\C#N)c2cc(OC)c(OC)c(OC)c2)cc1    f
O=C(Nc1cccnc1Nc1ccc(F)cc1)c1cn(Cc2cccc(Oc3ccccc3)c2)nn1    f
N#Cc1c(-c2ccc(Cl)cc2)nc(SCC(=O)NC2=NN=C(c3ccccc3)CS2)[nH]c1=O    f
CSc1ccc(/C=C2\C=C(CC(=O)NCc3ccc(C(=O)c4ccccc4)cc3)c3cc(F)ccc32)cc1    f
O=[N+]([O-])c1ccc(NS(=O)(=O)c2ccccc2)c2ccccc12    f

Is reported growth greater than or equal to 30% here: "O=C(CCN1CCCC1)Nc1ccc2c(NCc3ccc(F)cc3)c3ccccc3nc2c1"
f

Is reported growth greater than or equal to 30% here: "ClCc1ccc(-c2ccc(Cn3cnc4nc(Cl)nc(Cl)c43)cc2)cc1"
f

Is reported growth greater than or equal to 30% here: "NC(=O)CSSCC(N)=O"
f

Is reported growth greater than or equal to 30% here: "CC1=NN(c2nc(SCC(=O)Nc3nc4ccc(C)cc4s3)nc(-c3ccccc3)c2C#N)C(=O)C1"
t

Is reported growth greater than or equal to 30% here: "CN1CCN(CCCOc2cccc3nc(Nc4ccc(Cl)c(F)c4)ccc23)CC1"
t

Is reported growth greater than or equal to 30% here: "O=C(COc1cccc(/C=C2\COc3ccc(Cl)cc3C2=O)c1)c1ccc(Cl)cc1"
t

Is reported growth greater than or equal to 30% here: COc1ccc(-c2nsc3c2NC(=O)CC3c2cccc(Cl)c2)cc1 (stereo unspecified)
f

Is reported growth greater than or equal to 30% here: Cc1ccc(N2CCN(C(C)C(N)=O)CC2)cc1 (stereo unspecified)
t

Is reported growth greater than or equal to 30% here: "O=C1CC(c2cccc(-c3cccnc3)c2)=Nc2ccc(Br)cc2N1"
t

Is reported growth greater than or equal to 30% here: "N#CCCN(NC(=O)OCc1ccccc1)C(=O)OCc1ccccc1"
t

Is reported growth greater than or equal to 30% here: "Cc1cc(Nc2cccc(C(F)(F)F)c2)n2c(nc3ccccc32)c1C#N"
t

Is reported growth greater than or equal to 30% here: "O=C(Cn1ccc2ccccc21)Nc1ccc(-c2nc3ccccc3s2)cc1"
t

Is reported growth greater than or equal to 30% here: "COc1ccc(/C=C/C(=O)c2cc(O)ccc2O)cc1"
f

Is reported growth greater than or equal to 30% here: "O=C(Nc1ccccc1S)c1ccccc1"
t
